The reported numbers originate from patent US7205382B2.

- System: human IgG-Fc
- TEST_PROTOCOL: Cellulose-immobilized 13-mer peptide variants incubated with human IgG-Fc, anti-human IgG-AP detection
- Type: binding
- Set-up: key: No binding of immunoglobulin for the defined peptide variant, detection negative: 0; Binding of immunoglobulin for the defined peptide variant, detection positive: +
- SETUP_CONDITIONS: IgG-Fc 1 μg/ml in blocking buffer, 3 h room temperature
Bridge positions count the residues as written; N and C are the ends. Square brackets hold non-standard residues; d marks the D form. Ends that are not written are not given here. cellulose = not defined here; βAla = NCCC(=O)O
PROPERTY: Result for incubation with human IgG-Fc (immunoglobulin binding detection)
The reply should be a number, written without any unit.

SUBSTANCE | TESTED_ON | READOUT_NUMBER
02V: cellulose-bound 13-mer variant DVAWHLGELVWCT-(βA)(βA) (DVAWHLGELVWCT[βAla][βAla]; not fully specified; printed as DVAWHLGELVWCT-(βA)(βA); also: cellulose-bound) | human IgG-Fc | 0

Turning now to a further record.
Incoming: Fill in the blank: the reported Result for incubation with human IgG-Fc (immunoglobulin binding detection) of 07M: cellulose-bound 13-mer variant DCAWHLMELVWCT-(βA)(βA) (DCAWHLMELVWCT-{βAla-βAla-cellulose}; disulfide 2-12 (inferred); not fully specified (N-terminus); printed as DCAWHLMELVWCT-(βA)(βA); reading uncertain) is ____.
Outgoing: 0

* * *

- Test system: serum albumin
- TEST_PROTOCOL: Cellulose-immobilized 13-mer peptide variants incubated with serum albumin (negative control), anti-human IgG-AP detection
- Assay type: binding
- Design: key: No binding of immunoglobulin for the defined peptide variant, detection negative: 0; Binding of immunoglobulin for the defined peptide variant, detection positive: +
- SETUP_CONDITIONS: blocking buffer without addition, 3 h room temperature
Bridge positions count the residues as written; N and C are the ends. Ends that are not written are not given here. cellulose = not defined here; βAla = NCCC(=O)O
PROPERTY: Result for incubation with serum albumin (immunoglobulin binding detection)
Keep the answer to the number alone.

SUBSTANCE | READOUT_NUMBER
01P: cellulose-bound 13-mer variant PCAWHLGELVWCT-(βA)(βA) (PCAWHLGELVWCT-{βAla-βAla-cellulose}; disulfide 2-12 (inferred); reading uncertain; also: printed as PCAWHLGELVWCT-(βA)(βA)) | 0

Moving on to the next substance.
Incoming: Return reported Result for incubation with serum albumin (immunoglobulin binding detection); argument: 07C: cellulose-bound 13-mer variant DCAWHLCELVWCT-(βA)(βA) (DCAWHLCELVWCT-{βAla-βAla-cellulose}; not fully specified (N-terminus); printed as DCAWHLCELVWCT-(βA)(βA); cysteine pairing not given here; reading uncertain)
Outgoing: 0

* * *

- System: immunoglobulins in human plasma
- TEST_PROTOCOL: Cellulose-immobilized 13-mer peptide variants incubated with human plasma, anti-human IgG-AP detection
- Assay type: binding
- Parameters: key: No binding of immunoglobulin for the defined peptide variant, detection negative: 0; Binding of immunoglobulin for the defined peptide variant, detection positive: +
- SETUP_CONDITIONS: human plasma as sample, diluted 1:10,000 in blocking buffer, 3 h room temperature
Bridge positions count the residues as written; N and C are the ends. Ends that are not written are not given here. cellulose = not defined here; βAla = NCCC(=O)O
PROPERTY: Result for incubation with human plasma (immunoglobulin binding detection)
Provide a numeric answer; units are not to be included.

SUBSTANCE | READOUT_NUMBER
12K: cellulose-bound 13-mer variant DCAWHLGELVWKT-(βA)(βA) (DCAWHLGELVWKT-{βAla-βAla-cellulose}; not fully specified; printed as DCAWHLGELVWKT-(βA)(βA); reading uncertain) | 0

We next turn to a different substance, shown below.
Incoming: Please give the measured Result for incubation with human plasma (immunoglobulin binding detection) for this substance: 10G: cellulose-bound 13-mer variant DCAWHLGELGWCT-(βA)(βA) (DCAWHLGELGWCT-{βAla-βAla-cellulose}; disulfide 2-12 (inferred); reading uncertain; also: printed as DCAWHLGELGWCT-(βA)(βA))
Outgoing: 0

* * *

// reported Result for incubation with serum albumin (immunoglobulin binding detection) per item
- Tested on: serum albumin
- TEST_PROTOCOL: Cellulose-immobilized 13-mer peptide variants incubated with serum albumin (negative control), anti-human IgG-AP detection
- Type: binding
- Parameters: key: No binding of immunoglobulin for the defined peptide variant, detection negative: 0; Binding of immunoglobulin for the defined peptide variant, detection positive: +
- SETUP_CONDITIONS: blocking buffer without addition, 3 h room temperature
Bridge positions count the residues as written; N and C are the ends. Square brackets hold non-standard residues; d marks the D form. Ends that are not written are not given here. βAla = NCCC(=O)O
Write the number on its own, no unit after it.

Examples from the recorded data:
SUBSTANCE | TESTED_ON | READOUT_NUMBER
04R: cellulose-bound 13-mer variant DCARHLGELVWCT-(βA)(βA) (disulfide 2-12 (inferred); not fully specified (N-terminus, C-terminus); printed as DCARHLGELVWCT-(βA)(βA); also: cellulose-bound) | serum albumin | 0
04Q: cellulose-bound 13-mer variant DCAQHLGELVWCT-(βA)(βA) (disulfide 2-12 (inferred); not fully specified (N-terminus, C-terminus); printed as DCAQHLGELVWCT-(βA)(βA); also: cellulose-bound) | serum albumin | 0
02Q: cellulose-bound 13-mer variant DQAWHLGELVWCT-(βA)(βA) (DQAWHLGELVWCT[βAla][βAla]; not fully specified; printed as DQAWHLGELVWCT-(βA)(βA); also: cellulose-bound) | serum albumin | 0

We now examine a further substance.
Incoming: Name the reported Result for incubation with serum albumin (immunoglobulin binding detection) value associated with the substance 01C: cellulose-bound 13-mer variant CCAWHLGELVWCT-(βA)(βA) (CCAWHLGELVWCT[βAla][βAla]; cysteine pairing not given here; also: bound to cellulose support)
Outgoing: 0

* * *

# Result for incubation with human plasma (immunoglobulin binding detection) per record follows
- System: immunoglobulins in human plasma
- TEST_PROTOCOL: Cellulose-immobilized 13-mer peptide variants incubated with human plasma, anti-human IgG-AP detection
- Assay type: binding
- Set-up: key: No binding of immunoglobulin for the defined peptide variant, detection negative: 0; Binding of immunoglobulin for the defined peptide variant, detection positive: +
- SETUP_CONDITIONS: human plasma as sample, diluted 1:10,000 in blocking buffer, 3 h room temperature
Bridge positions count the residues as written; N and C are the ends. Square brackets hold non-standard residues; d marks the D form. Ends that are not written are not given here. cellulose = not defined here; βAla = NCCC(=O)O
Reply: number alone, nothing else.

Consider the following illustrative entries.
SUBSTANCE | READOUT_NUMBER
07F: cellulose-bound 13-mer variant DCAWHLFELVWCT-(βA)(βA) (DCAWHLFELVWCT-{βAla-βAla-cellulose}; disulfide 2-12 (inferred); not fully specified (N-terminus); printed as DCAWHLFELVWCT-(βA)(βA); reading uncertain) | 0
09S: cellulose-bound 13-mer variant DCAWHLGESVWCT-(βA)(βA) (DCAWHLGESVWCT-{βAla-βAla-cellulose}; disulfide 2-12 (inferred); reading uncertain; also: printed as DCAWHLGESVWCT-(βA)(βA)) | 0
03I: cellulose-bound 13-mer variant DCIWHLGELVWCT-(βA)(βA) (DCIWHLGELVWCT-{βAla-βAla-cellulose}; disulfide 2-12 (inferred); reading uncertain; also: printed as DCIWHLGELVWCT-(βA)(βA)) | 0

Incoming: For 05E: cellulose-bound 13-mer variant DCAWELGELVWCT-(βA)(βA) (disulfide 2-12 (inferred); not fully specified (N-terminus, C-terminus); printed as DCAWELGELVWCT-(βA)(βA); also: cellulose-bound) , what is its reported Result for incubation with human plasma (immunoglobulin binding detection)?
Outgoing: 0

Incoming: Requested field: Result for incubation with human plasma (immunoglobulin binding detection). Item: 01N: cellulose-bound 13-mer variant NCAWHLGELVWCT-(βA)(βA) (NCAWHLGELVWCT-{βAla-βAla-cellulose}; disulfide 2-12 (inferred); reading uncertain; also: printed as NCAWHLGELVWCT-(βA)(βA))
Outgoing: 0

Incoming: I'd like to know its Result for incubation with human plasma (immunoglobulin binding detection). The substance in question is 02W: cellulose-bound 13-mer variant DWAWHLGELVWCT-(βA)(βA) (DWAWHLGELVWCT[βAla][βAla]; not fully specified; printed as DWAWHLGELVWCT-(βA)(βA); also: cellulose-bound)
Outgoing: 0

* * *

Measured Result for incubation with human plasma (immunoglobulin binding detection), listed per entry.
- Tested on: immunoglobulins in human plasma
- TEST_PROTOCOL: Cellulose-immobilized 13-mer peptide variants incubated with human plasma, anti-human IgG-AP detection
- Type: binding
- Parameters: key: No binding of immunoglobulin for the defined peptide variant, detection negative: 0; Binding of immunoglobulin for the defined peptide variant, detection positive: +
- SETUP_CONDITIONS: human plasma as sample, diluted 1:10,000 in blocking buffer, 3 h room temperature
Bridge positions count the residues as written; N and C are the ends. Square brackets hold non-standard residues; d marks the D form. Ends that are not written are not given here. cellulose = not defined here; βAla = NCCC(=O)O
Could you respond with only the numeric value?

Consider the reported Result for incubation with human plasma (immunoglobulin binding detection) for these substances:
SUBSTANCE | READOUT_NUMBER
04D: cellulose-bound 13-mer variant DCADHLGELVWCT-(βA)(βA) (DCADHLGELVWCT-{βAla-βAla-cellulose}; disulfide 2-12 (inferred); reading uncertain; also: printed as DCADHLGELVWCT-(βA)(βA)) | 0
02G: cellulose-bound 13-mer variant DGAWHLGELVWCT-(βA)(βA) (DGAWHLGELVWCT[βAla][βAla]; not fully specified; printed as DGAWHLGELVWCT-(βA)(βA); also: cellulose-bound) | 0
11L: cellulose-bound 13-mer variant DCAWHLGELVLCT-(βA)(βA) | 0
12F: cellulose-bound 13-mer variant DCAWHLGELVWFT-(βA)(βA) (DCAWHLGELVWFT-{βAla-βAla-cellulose}; not fully specified; printed as DCAWHLGELVWFT-(βA)(βA); reading uncertain) | 0

Field: next substance
Incoming: Given the entry 10A: cellulose-bound 13-mer variant DCAWHLGELAWCT-(βA)(βA) (DCAWHLGELAWCT-{βAla-βAla-cellulose}; disulfide 2-12 (inferred); reading uncertain; also: printed as DCAWHLGELAWCT-(βA)(βA)) , what Result for incubation with human plasma (immunoglobulin binding detection) was observed with immunoglobulins in human plasma?
Outgoing: 0
